Tested on: RARa homodimer (NR concentration 270 nM)
Test: PBM binding z-score (relative to random genomic background probes); higher = stronger binding; sequences stand for … in GC…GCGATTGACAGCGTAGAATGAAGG
Each item that follows carries a reported PBM binding z-score.
Keep the answer to the number alone.

Below are worked cases with known answers.
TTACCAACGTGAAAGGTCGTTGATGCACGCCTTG | 0.296
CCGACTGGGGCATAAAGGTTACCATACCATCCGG | 0.301
CCGACTGGGGCATAAGTTTACCATAAGCCAGCCC | -0.566

Now for another entry.
Query :: Enter reported PBM binding z-score observed with RARa homodimer (NR concentration 270 nM) for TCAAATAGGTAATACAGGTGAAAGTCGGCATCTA
Result :: 1.66

====

System: PXR:RXRa (NR concentration 270 nM, RXRa partner concentration 90 nM)
Test: PBM binding z-score (relative to random genomic background probes); higher = stronger binding; sequences stand for … in GC…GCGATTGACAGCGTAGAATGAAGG
List of PBM binding z-score values.
Number only, please.

Reference set (5 entries):
CCTACTGGGCCATCAGGTCATCGATATCAACGTT | 1.5
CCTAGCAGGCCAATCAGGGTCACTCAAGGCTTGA | 4.07
GCTTGTAGATCAGGGTTAAGAAAGACTAAGCTAA | 0.366
CCTATTGGGCCATTCAGAGGTCATTGATCATATG | 4.71
CCTCGGAGGACAACAGGAGGTCAGAGCAGCCAGA | 2.05

Query :: Field request: PBM binding z-score | item: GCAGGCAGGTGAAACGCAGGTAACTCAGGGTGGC
Result :: -0.0371

====

System: LXRa:RXRa (NR concentration 270 nM, RXRa partner concentration 90 nM)
Experiment: PBM binding z-score (relative to random genomic background probes); higher = stronger binding; sequences stand for … in GC…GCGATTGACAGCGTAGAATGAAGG
Everything with PBM binding z-score lower than -0.3 is F; everything else, including exactly -0.3, is T.

Please review the following examples before continuing.
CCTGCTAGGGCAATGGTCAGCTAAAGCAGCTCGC | T
GTCCCAAGGTGAATAGGTCGTTGATGAGTAGGCG | T
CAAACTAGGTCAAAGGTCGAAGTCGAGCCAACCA | T
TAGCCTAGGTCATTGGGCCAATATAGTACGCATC | T
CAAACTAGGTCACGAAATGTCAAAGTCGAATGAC | T

Let's switch to this sequence now.
Query :: Hello, I need to know if AGTCAAAGTTCCGGACGAGGTAACGTAAAGCACG has measured PBM binding z-score not below -0.3. Thanks!
Result :: F

====

Entries annotated with measured PBM binding z-score
System: RARg:RXRa (NR concentration 270 nM, RXRa partner concentration 90 nM)
Experiment: PBM binding z-score (relative to random genomic background probes); higher = stronger binding; sequences stand for … in GC…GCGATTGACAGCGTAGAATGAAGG
Number only, no unit.

Would you please look over these solved cases?
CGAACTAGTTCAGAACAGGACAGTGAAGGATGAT | 0.335
ACAGACAGATGATGAAGGTAACTCAGGCTATCAT | 0.199

Query :: What does the data say about its PBM binding z-score? Entry: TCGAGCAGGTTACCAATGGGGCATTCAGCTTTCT
Result :: 1.36

Query :: Record request: PBM binding z-score value, item TCGAGTAGGTTAGCCGGGGCATTCAGCCAACATA
Result :: 0.0604

Query :: Query: PBM binding z-score; subject: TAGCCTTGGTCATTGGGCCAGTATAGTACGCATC
Result :: 0.238

Query :: Record request: PBM binding z-score value, item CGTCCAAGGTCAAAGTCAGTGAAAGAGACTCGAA
Result :: 5.86

Query :: Report PBM binding z-score for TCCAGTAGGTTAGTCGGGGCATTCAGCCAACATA please.
Result :: 0.125

Query :: For TCATATAAGTAAACAGGTGAAAGTCCGTAAGTTA , what is its reported PBM binding z-score?
Result :: 0.357

Query :: Entry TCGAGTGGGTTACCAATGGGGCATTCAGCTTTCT has what PBM binding z-score?
Result :: 0.678

Query :: What measured PBM binding z-score goes with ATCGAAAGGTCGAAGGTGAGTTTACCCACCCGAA ?
Result :: 4.3

Query :: State the recorded PBM binding z-score for this entry: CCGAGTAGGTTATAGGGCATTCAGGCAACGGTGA
Result :: 0.821

Query :: So what does the record say about PBM binding z-score for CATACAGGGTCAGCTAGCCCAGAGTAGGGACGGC ?
Result :: 4.59

Query :: # lookup: PBM binding z-score of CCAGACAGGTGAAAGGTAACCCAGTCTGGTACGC
Result :: 1.35

Query :: Returns the measured PBM binding z-score for the input sequence. Input: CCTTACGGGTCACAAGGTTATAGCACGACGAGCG
Result :: 5.7

====

Measured PBM binding z-score, listed per entry.
Tested on: PXR homodimer (NR concentration 270 nM)
Test: PBM binding z-score (relative to random genomic background probes); higher = stronger binding; sequences stand for … in GC…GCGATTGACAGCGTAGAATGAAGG
Just the number, please.

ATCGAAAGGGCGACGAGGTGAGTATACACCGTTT | 0.172

Query :: For the sequence shown here, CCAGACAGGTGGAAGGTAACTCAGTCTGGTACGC , give the reported PBM binding z-score.
Result :: -0.0179

Query :: # input sequence: GCTAGTTGGTCAGTAAAAGGTCACGCACCGGTCG ; wanted: its PBM binding z-score
Result :: 1.28

Query :: Reported PBM binding z-score for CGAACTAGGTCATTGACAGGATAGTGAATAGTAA : what is it?
Result :: 0.363

====

System: THRa homodimer (NR concentration 90 nM)
Assay: PBM binding z-score (relative to random genomic background probes); higher = stronger binding; sequences stand for … in GC…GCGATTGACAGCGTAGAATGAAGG
Let's look at some sequences and their measured PBM binding z-score.
Simply state the number, no unit and no words.

Example sequences with recorded PBM binding z-score:
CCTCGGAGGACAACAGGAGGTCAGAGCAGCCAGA | 1.04
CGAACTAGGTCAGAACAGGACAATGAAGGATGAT | 0.458
GCTCGGAGGAAAAGGTCAGAGCTTTGTCCGTAGA | -0.291
ACTAGCAGGCCAATTTTGGGTCACTCAAACAAAG | 1.24
TGATATAGGTAATACAGGTGAAAGTCGGCATCTA | 0.267

Query :: Can you look up the measured PBM binding z-score of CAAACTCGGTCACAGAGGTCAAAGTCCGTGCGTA for me?
Result :: 1.73

Query :: # PBM binding z-score lookup, item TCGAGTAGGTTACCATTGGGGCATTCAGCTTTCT
Result :: -0.238

Query :: Query: PBM binding z-score; subject: ATATCTAGGTAAGACTCAGTTCAGTGAAGAACGC
Result :: 0.604

Query :: What PBM binding z-score value was documented for this sequence, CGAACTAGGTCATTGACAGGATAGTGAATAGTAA ?
Result :: 0.521

Query :: Suppose we examine the sequence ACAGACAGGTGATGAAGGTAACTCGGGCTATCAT ; what PBM binding z-score value has been reported?
Result :: 0.0589

Query :: Which value of PBM binding z-score has been reported for CCTTACGGGTCACGCGGTTATAGCACGACGAGCG in the records?
Result :: 0.416

Query :: Item under review: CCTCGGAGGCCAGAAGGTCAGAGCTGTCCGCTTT . Reported PBM binding z-score?
Result :: 0.0524

Query :: // lookup PBM binding z-score for CCTGCTAGGTCAATGGTCAGCTGAAGCAGCTCGC
Result :: 0.335

====

Reported PBM binding z-score values for the following sequences.
System: PPARa:RXRa (NR concentration 270 nM, RXRa partner concentration 90 nM)
Test: PBM binding z-score (relative to random genomic background probes); higher = stronger binding; sequences stand for … in GC…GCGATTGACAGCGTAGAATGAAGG

Solved entries:
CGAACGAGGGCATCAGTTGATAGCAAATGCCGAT | 1.19
CAAACGAGGGCATGAGTTGATAGCAAATGCCGAT | 1.86
TAGCCTAGGTCATGGGCCCGTATACCACGCGAAC | 4

Query :: State the recorded PBM binding z-score for this entry: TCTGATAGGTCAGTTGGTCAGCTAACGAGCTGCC
Result :: 2.67

Query :: What does the record list as PBM binding z-score for ACAGGCAGGTGATGAAGGTAACTCAGGCTATCAT ?
Result :: -0.126

Query :: Name the recorded PBM binding z-score for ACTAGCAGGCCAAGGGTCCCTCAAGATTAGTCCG .
Result :: 1.09

Query :: Look up PBM binding z-score: TAGCCTAGGTCATGGGCCAGTATGCCACGCGAAC
Result :: 4.18

Query :: Data request, read-out PBM binding z-score, for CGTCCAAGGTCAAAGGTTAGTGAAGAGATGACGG
Result :: 6.47

Query :: What value of measured PBM binding z-score is listed for CCTTACTGGTCAAGGTTATAGCACGGGTGGTACG ?
Result :: 1.43

Query :: Look up PBM binding z-score for this sequence: TCGAGTAGGTTACCAATGGGGGATTCAGCTTTCT
Result :: 1.74

Query :: Data request, read-out PBM binding z-score, for GCGACTGGGGGAAAGCAGGTTACCATAAGGTTGG
Result :: 1.75
